test: soluble fraction after stress (log2 fold change); higher = more stays soluble; pooled small domains, quantitative proteomics; details: stress: pH 4
Please note: 1 applies when soluble fraction (log2) is 0.02 or greater, and 0 applies otherwise.

Solved entries:
[[record]]
sequence_string = "HMTYQHQSIIHRRTRGAILTAAKELLAESGISGTNMIEIADRAQVSRASLYNHFRDKHEVFLALVES"
group_label = 0

[[record]]
sequence_string = "HMIELTTDYKKRVVEALVSARENYSGSDSDFARKWSIDKTVYSRLKKGYQEGLLSVGKYIELGMELNVSSR"
group_label = 0

[[record]]
sequence_string = "HMEVPNLIGMTDKDLQRTYFQLPIEAAGDGSVVIKQLPEPGEKVKEGSVIRVLLG"
group_label = 0

[[record]]
sequence_string = "HMQEDQKTSIFDIEGVEKGVASVLSSIKVEIVSDLLEADMDDILKSGKISEDDLDGVYEAVQNFVER"
group_label = 0

[[record]]
sequence_string = "HMQVTGLTAENAHRVTMIREKGTDHPPVPFHFRKEHHGTGNYVHLYGNPEDRNELHSRDFKDWEAVAFK"
group_label = 1


Let's switch to this sequence now.
Hi team, for HMIETIIGAEGKVLETIDNFNQKGVVALAGKEWTARSADASIIPEGAKVSVVEISGVKLIVTQN , is the recorded soluble fraction (log2) at or above 0.02?
0

---

assay: soluble fraction after stress (log2 fold change); higher = more stays soluble; pooled small domains, quantitative proteomics; conditions: stress: pH 4
Please note: 1 applies when soluble fraction (log2) is -0.3 or greater, and -1 applies otherwise.

[[record]]
sequence_string = "HMRPRGTRLPTGWTPSSDALDWTKAEKPGLDPLQTLEKFRDYWTAQPGQKGVKTDWDATWRNWVRREIP"
group_label = 1


Hi team, for HMDEMEFQKYVDQNLKQKGISLTAEAKAELLLRLGGDTMLLHSAIEKLDLYGEKNLNLNDIKHLVSLNSDV , is the recorded soluble fraction (log2) at or above -0.3?
1

Try this sequence too: HMPYNRRYLISNADGALYTVEENGLVKLEETNLTAELFETRGMQDIPDGKLLITLHDPTILYWHDSENLFP
-1

Try this sequence too: HMENIIKISASYEGLRVDQFLSNYLKISRSKVQKYISEEKIFLNNVPTKTNRKVKLDDIISYNLNF
1

Try this sequence too: HMVPPELEFLQSLMKIEDISELTAAIENNRDAVTDDFKEMLETVIENISGAPDTDPKLLERLKTIRTVLA
-1

Try this sequence too: HMDRSVTAAELRLAAMDLLARREHGSQELEAKLSRRFHKRHYDVELLRSVIEQLTVEGLLSDERFAVS
-1

Try this sequence too: HMPGLITLEAAKTTALNHAKLTADQVTFVKQKLDRDDGRQVYEIEFYTSDYKEYDYEIDAVSGLILEVDYD
-1

Try this sequence too: HMNSNSLSFSKFMQEVEAGRVIEVQIKGNDIQGELSDGSKFKTYSPNYPNLVDKLSENKVSIVATPL
1
